Molecular target: Cytochrome P450 1A2 (Homo sapiens) (UniProt P05177)
Sequence (P05177 whole entry, looked up): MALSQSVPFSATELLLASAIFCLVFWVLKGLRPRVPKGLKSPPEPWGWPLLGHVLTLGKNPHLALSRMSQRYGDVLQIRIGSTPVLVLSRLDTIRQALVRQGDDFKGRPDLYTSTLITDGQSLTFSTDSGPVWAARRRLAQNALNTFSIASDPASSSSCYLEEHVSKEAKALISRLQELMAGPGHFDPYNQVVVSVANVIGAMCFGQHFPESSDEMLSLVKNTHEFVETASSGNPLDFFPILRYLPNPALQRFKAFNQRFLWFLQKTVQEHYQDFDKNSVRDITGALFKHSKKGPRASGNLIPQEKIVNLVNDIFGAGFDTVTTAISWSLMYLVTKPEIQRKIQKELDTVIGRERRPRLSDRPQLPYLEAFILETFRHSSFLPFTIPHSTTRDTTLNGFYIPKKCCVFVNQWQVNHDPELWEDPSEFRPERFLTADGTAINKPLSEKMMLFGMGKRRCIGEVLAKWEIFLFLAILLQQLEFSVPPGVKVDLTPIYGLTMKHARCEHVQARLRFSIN
Experiment: Cytochrome P450 Family 1 Subfamily A Member 2 (CYP1A2) small molecule antagonists: luciferase reporter qHTS assay (AID 1671199); further: nearly all actives have a fitted effect of over 50% in size
Conditions: P450-Glo CYP1A2 enzyme, luciferin luminescence, 1 h; series mostly up to 53 µM
Inconclusive results are not listed. Active and inactive are the calls of the source. The call rests on the fitted dose curve; in most records, active means well fitted inhibition curve with a large enough effect in the repeat runs; inconclusive means weak or mixed curves; inactive means no such curve, though single readings can be large or run the other way.
Outcome codes: active, inactive

>>> class_label("CC(NN)c1ccccc1 (stereo unspecified)")
"inactive"
>>> class_label("Cc1cc(O)c(Cl)c(C)c1Cl")
"active"
>>> class_label("C[C@H](CCC(=O)O)[C@H]1CC[C@H]2[C@@H]3CC[C@@H]4C[C@H](O)CC[C@]4(C)[C@H]3CC[C@]12C")
"inactive"
>>> class_label("CCCCCCCCCCCCCCCC[N+](C)(C)CCN(Cc1ccc(OC)cc1)c1ncccn1")
"inactive"
>>> class_label("CN(C)CCCOC1(Cc2ccccc2)CCCCCC1")
"inactive"
>>> class_label("CCOC(=O)/C=C(C)/C=C/C=C(C)/C=C/c1c(C)cc(OC)c(C)c1C")
"active"
>>> class_label("COc1cc(-c2nc(NC(=O)c3cc4cc(C)cc(C)c4n3CC(=O)O)sc2CCC2CCCCC2)c(OC)cc1Cl")
"inactive"
>>> class_label("CCC(Cl)C(Cl)C(Cl)CC(Cl)C(Cl)C(C)Cl (stereo unspecified)")
"active"
>>> class_label("O=C(c1ccc(F)cc1)C1CCN(CCn2c(=O)[nH]c3ccccc3c2=O)CC1")
"inactive"
>>> class_label("O=C(N/N=C/c1ccccc1O)c1ccncc1")
"active"
>>> class_label("O=[N+]([O-])c1cc(Cl)c(Cl)c(Cl)c1Cl")
"active"

---

Assay: qHTS RealTime-Glo MT Cell Viability Assay in HEK293 cells - 8 hour (AID 1224887); further: nearly all actives have a fitted effect of over 50% in size
Settings: RealTime-Glo luminescence; series mostly up to 76.8 µM
Inconclusive results are not listed. The source made the active and inactive calls. Calls come from the whole dose curve; as a rule, active = well fitted cell-killing curve with a large enough effect in the repeat runs; inconclusive = weak or mixed curves, or effect the other way; inactive = flat fitted curve, though single readings scatter.
Labels: Y = active, N = inactive

>>> class_label("CCCCC(CC)COC(=O)c1ccccc1C(=O)O (stereo not given)")
"N"
>>> class_label("CCCCCCCCCCCCCCCC[N+](C)(C)CCN(Cc1ccc(OC)cc1)c1ncccn1")
"Y"
>>> class_label("CC(C)CCCCCCCCCCCCCCC(=O)O")
"N"
>>> class_label("CSc1ccc(/C=C2/C(C)=C(CC(=O)O)c3cc(F)ccc32)cc1")
"N"
>>> class_label("O=c1[nH]sc2ccccc12")
"Y"
>>> class_label("Nc1nc2ccccc2n1Cc1ccc(F)cc1")
"N"
>>> class_label("Oc1cc2ccccc2c2ccccc12")
"Y"
>>> class_label("COC(=O)c1cc(Cl)ccc1OC")
"N"
>>> class_label("C=CC(=O)OCCn1c(=O)n(CCOC(=O)C=C)c(=O)n(CCOC(=O)C=C)c1=O")
"N"
>>> class_label("CCCC(c1cc(C(C)(C)C)c(O)cc1C)c1cc(C(C)(C)C)c(O)cc1C")
"Y"
>>> class_label("Cc1cc(O)c2ccccc2c1O")
"Y"
>>> class_label("C=C(C)C(=O)OCC(O)COc1ccc(C(C)(C)c2ccc(OCC(O)COC(=O)C(=C)C)cc2)cc1 (stereo not given)")
"Y"
>>> class_label("CCOc1nc2cccc(C(=O)OC(C)OC(=O)OC3CCCCC3)c2n1Cc1ccc(-c2ccccc2-c2nn[nH]n2)cc1 (stereo not given)")
"Y"
>>> class_label("Cc1cccc(N(C)C(=S)Oc2ccc3c(c2)C2CCC3C2)c1 (stereo not given)")
"N"
>>> class_label("COc1cc(/C=C/C(=O)O[C@H]2CC[C@]34C[C@]35CC[C@]3(C)[C@@H]([C@H](C)CCC=C(C)C)CC[C@@]3(C)[C@@H]5CC[C@H]4C2(C)C)ccc1O")
"N"
>>> class_label("CCCC/C=C/CCCCO")
"N"
>>> class_label("CCCCN1C(=O)[C@@H]([C@H](O)C2CCCCC2)NC(=O)C12CCN(Cc1ccc(Oc3ccc(C(=O)O)cc3)cc1)CC2")
"N"
>>> class_label("CC1(C)CCC(C)(C)c2cc(C(=O)Nc3ccc(C(=O)O)cc3)ccc21")
"N"
>>> class_label("Oc1ccc2cc(SSc3ccc4cc(O)ccc4c3)ccc2c1")
"Y"
>>> class_label("COc1ccc(-c2ccc3cc(C(=O)O)ccc3c2)cc1C12CC3CC(CC(C3)C1)C2")
"N"
>>> class_label("CCN(CC)CCCC(C)Nc1c2ccc(Cl)cc2nc2ccc(OC)cc12 (stereo not given)")
"Y"
>>> class_label("CN(C)c1ccc(C2(c3ccc(N(C)C)cc3)OC(=O)c3cc(N(C)C)ccc32)cc1")
"N"
>>> class_label("S=c1[nH]c2ccccc2s1")
"N"
>>> class_label("N=C1N=C(N)c2ccccc21")
"N"
>>> class_label("OCCN1CCN(CC/C=C2/c3ccccc3Sc3ccc(C(F)(F)F)cc32)CC1")
"Y"
>>> class_label("Cc1cccc(S(=O)(=O)O)c1C")
"N"
>>> class_label("CCCCCCCC[N+](CCCCCCCC)(CCCCCCCC)CCCCCCCC")
"Y"
>>> class_label("CC(C)(C)C(=O)OCOC(=O)[C@@H]1N2C(=O)[C@@H](NC(=O)[C@H](N)c3ccccc3)[C@H]2SC1(C)C")
"N"
>>> class_label("O=c1cccccc1O")
"N"
>>> class_label("COc1ccc(CN2CCN(C(c3ccc(F)cc3)c3ccc(F)cc3)CC2)c(OC)c1OC")
"Y"
>>> class_label("Cc1ccc2oc(CN(Cc3ccccc3)C(=O)Nc3c(F)cc(F)cc3F)c(-c3ccc(Cl)cc3)c2c1")
"N"
>>> class_label("CN(C)c1ccc(SC#N)cc1")
"N"
>>> class_label("O=C1c2ccccc2Cc2ccccc21")
"N"
>>> class_label("CN(C)[C@@H]1C(=O)C(C(N)=O)=C(O)[C@@]2(O)C(=O)C3=C(O)c4c(O)cccc4C[C@H]3C[C@@H]12")
"N"
>>> class_label("NNc1nc(-c2ccc(N)cc2)cs1")
"N"
>>> class_label("C[C@H](CCC(=O)O)[C@H]1CC[C@H]2[C@@H]3CC[C@@H]4C[C@H](O)CC[C@]4(C)[C@H]3CC[C@]12C")
"N"
>>> class_label("CCCCCCCCCCC=O")
"N"
>>> class_label("CCCCCCCCOC(=O)c1ccc(O)cc1")
"Y"
>>> class_label("Clc1ccc(C(Cn2ccnc2)OCc2ccc(Sc3ccccc3)cc2)c(Cl)c1 (stereo not given)")
"N"
>>> class_label("O=C1C=CC(=O)N1c1ccc(Cc2ccc(N3C(=O)C=CC3=O)cc2)cc1")
"Y"
>>> class_label("Cc1onc(-c2ccccc2Cl)c1C(=O)N[C@@H]1C(=O)N2[C@@H]1SC(C)(C)[C@@H]2C(=O)O")
"N"
>>> class_label("CC(C)=CCOc1ccc(/C=C/C(=O)c2ccc(OCC=C(C)C)cc2OCC(=O)O)cc1")
"N"
>>> class_label("CCC(C)(C)C1CCCCC1OC(C)=O (stereo not given)")
"N"
>>> class_label("CCCCCCCCCCCC(=O)NCCCN(C)C")
"Y"
>>> class_label("O=C(c1ccc(O)cc1O)c1ccc(O)cc1O")
"N"

---

Test: qHTS assay to identify small molecule agonists of the sonic hedgehog signaling (Shh) pathway (AID 1259368);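 further: NIH/3T3-derived 3T3Gli1-Luc cells carrying a stable Gli1-driven firefly luciferase reporter; nearly all actives have a fitted effect of over 15% in size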
Details: NIH/3T3 Gli1-Luc reporter, luciferase, 24 h; series mostly up to 92.4 µM
Text: National Center for Advancing Translational Sciences [NCATS] NIH Chemical Genomics Center [NCGC] U.S. Environmental Protection Agency [EPA] National Institutes of Environmental Health Sciences [NIEHS] National Toxicology Program [NTP] The sonic hedgehog (Shh) pathway is essential for normal embryonic development. Dysregulation of the Shh pathway can cause severe developmental defects in organs. Therefore chemicals that interfere with the pathway are potential developmental toxicants. […]
Activity calls are given as the source filed them. Calls come from the whole dose curve.
Measured Property: activity change

>>> val("O=c1c(-c2ccccc2)c1-c1ccccc1")
"inactive"
>>> val("Cc1cc(O)c2ccccc2c1O")
"inactive"
>>> val("COc1cc(-c2nc(NC(=O)c3cc4cc(C)cc(C)c4n3CC(=O)O)sc2CCC2CCCCC2)c(OC)cc1Cl")
"inactive"
>>> val("CCCCC(CC)CN=C(N)NC(N)=NCCCCCCN=C(N)NC(N)=NCC(CC)CCCC (stereo not drawn)")
"inactive"
>>> val("CC(C)(C)C(=O)OCOC(=O)[C@@H]1N2C(=O)[C@@H](NC(=O)[C@H](N)c3ccccc3)[C@H]2SC1(C)C")
"inactive"
>>> val("CCCCCCCCn1sc(Cl)c(Cl)c1=O")
"inactive"
>>> val("O=c1[nH]sc2cc(Cl)ccc12")
"inactive"
>>> val("CCCCCCCCCCn1cc[n+](CCCCCCCCCC)c1C")
"inactive"
>>> val("CCCC(c1cc(C(C)(C)C)c(O)cc1C)c1cc(C(C)(C)C)c(O)cc1C")
"inactive"
>>> val("O=C(NOCC1CC1)c1ccc(F)c(F)c1Nc1ccc(I)cc1Cl")
"inactive"
>>> val("C/C=C(\\C)C(=O)OCc1ccccc1")
"inactive"
>>> val("Cc1cccc(N(C)C(=S)Oc2ccc3c(c2)C2CCC3C2)c1 (stereo not drawn)")
"inactive"
>>> val("CCCCCCCCCCCCCCCCCC[N+](C)(C)Cc1ccccc1")
"inactive"
>>> val("O=[N+]([O-])c1ccccc1Nc1ccccc1")
"inactive"
>>> val("CNCc1cc(F)ccc1Oc1ccc(Cl)c(Cl)c1")
"inactive"
>>> val("O=c1cccccc1O")
"inactive"
>>> val("CCCC(=O)OC[C@@H](OC(=O)CCC)[C@@H](OC(=O)CCC)[C@H](Cn1c2nc(=O)[nH]c(=O)c-2nc2cc(C)c(C)cc21)OC(=O)CCC")
"inactive"
>>> val("NC(=O)NS(=O)(=O)c1ccc(N)cc1")
"inactive"
>>> val("COc1ccc(CN2CCN(C(c3ccc(F)cc3)c3ccc(F)cc3)CC2)c(OC)c1OC")
"inactive"
>>> val("CC(C)(C)C1CCC(CC2=C(O)c3ccccc3C(=O)C2=O)CC1 (stereo not drawn)")
"inactive"
>>> val("Fc1ccc([C@@H]2CCNC[C@H]2COc2ccc3c(c2)OCO3)cc1")
"inactive"
>>> val("O=C(Nc1cccc(C(F)(F)F)c1)c1cc(Br)cc(Br)c1O")
"inactive"
>>> val("CCCCCCCCCOC(=O)c1ccc(O)cc1")
"inactive"
